assay: Oral bioavailability in rat; assay type: ADME, organism-based; details: in vivo
assay-endpoint: bioavailability (%)
State just the number; it will be interpreted in %.

# bioavailability of `COc1c(C)cnc(CN2CC(=O)Nc3c(Cl)nc(N)nc32)c1C` = 60

----------
tested on: HT-29; assay: Growth inhibition of human HT-29 cells; assay type: functional, cell-based
assay-endpoint: log10(IC50) (log10 of the value in nM)
Values are log10 of IC50 in nM.

| compound | log10(IC50) |
| --- | --- |
| Cc1cnc(CN2CC(=O)N(CC(C)C)c3c(Cl)nc(N)nc32)c(C)c1Br | 2.15 |
| COc1c(C)cnc(CN2c3nc(N)nc(Cl)c3NC(=O)[C@H]2C)c1C | 2.67 |
| COc1c(C)cnc(CN2CC(=O)Nc3c(Cl)nc(N)nc32)c1C | 3.07 |
| COc1c(C)cnc(CN2CC(=O)N(CCCC(C)C)c3c(Cl)nc(N)nc32)c1C | 3.35 |
| COc1c(C)cnc(CN2CC(=O)N(C(C)C(=O)NCCN(C)C)c3c(Cl)nc(N)nc32)c1C (centres undefined) | 2.00 |
| COc1c(C)cnc(CN2c3nc(N)nc(Cl)c3NC(=O)[C@@H]2CC(C)C)c1C | 2.84 |
| COc1c(C)cnc(CN2CC(=O)N(C(=O)NCCN3CCOCC3)c3c(Cl)nc(N)nc32)c1C | 3.08 |
| COc1c(C)cnc(CN2CC(=O)N(CC(C)C)c3c(Cl)nc(N)nc32)c1C | 1.60 |

# log10(IC50) of `COc1c(C)cnc(CN2CC(=O)N(C(C)C)c3c(Cl)nc(N)nc32)c1C` = 1.78
